Origin of values: patent US20250019437A1

measurement_target: T1, human TREM2 (triggering receptor expressed on myeloid cells 2) (human) (UniProt Q9NZC2)
T1 sequence (looked up): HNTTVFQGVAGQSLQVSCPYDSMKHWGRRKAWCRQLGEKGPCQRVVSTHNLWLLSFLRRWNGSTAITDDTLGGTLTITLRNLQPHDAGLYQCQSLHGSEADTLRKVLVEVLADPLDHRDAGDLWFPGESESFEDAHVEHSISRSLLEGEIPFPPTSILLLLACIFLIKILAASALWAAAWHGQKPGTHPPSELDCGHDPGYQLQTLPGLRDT
assay: 2nd screen, 10 nM Ab
reported_property: Binding Signal (fold over 6E7 parental antibody) (fold)
Entry rule: numbers only, all in fold.

• 6E7 antibody affinity modulation variant V41 (antibody, V domains shown) VH: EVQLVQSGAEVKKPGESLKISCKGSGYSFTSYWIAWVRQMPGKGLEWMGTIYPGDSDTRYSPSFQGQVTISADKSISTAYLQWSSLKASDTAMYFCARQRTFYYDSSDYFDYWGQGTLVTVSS VL: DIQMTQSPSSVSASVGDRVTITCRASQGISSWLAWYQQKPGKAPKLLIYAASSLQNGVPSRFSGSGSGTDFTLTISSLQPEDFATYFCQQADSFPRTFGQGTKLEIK = 1.72

# next binder below
Query: Quick one: Binding Signal (fold over 6E7 parental antibody) for 6E7 antibody affinity modulation variant V85 (antibody, V domains shown) VH: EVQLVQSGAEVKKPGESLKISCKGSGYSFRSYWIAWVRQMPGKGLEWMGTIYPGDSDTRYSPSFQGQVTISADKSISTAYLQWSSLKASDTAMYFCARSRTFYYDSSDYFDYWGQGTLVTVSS VL: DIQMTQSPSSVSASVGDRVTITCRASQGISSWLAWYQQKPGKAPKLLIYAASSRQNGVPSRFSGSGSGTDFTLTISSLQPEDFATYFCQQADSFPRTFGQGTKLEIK ?
Reply: 5.37
